# targetEntity: Female germline-specific tumor suppressor gld-1 (Caenorhabditis elegans) (UniProt Q17339)
# Sequence (Q17339 whole entry, looked up): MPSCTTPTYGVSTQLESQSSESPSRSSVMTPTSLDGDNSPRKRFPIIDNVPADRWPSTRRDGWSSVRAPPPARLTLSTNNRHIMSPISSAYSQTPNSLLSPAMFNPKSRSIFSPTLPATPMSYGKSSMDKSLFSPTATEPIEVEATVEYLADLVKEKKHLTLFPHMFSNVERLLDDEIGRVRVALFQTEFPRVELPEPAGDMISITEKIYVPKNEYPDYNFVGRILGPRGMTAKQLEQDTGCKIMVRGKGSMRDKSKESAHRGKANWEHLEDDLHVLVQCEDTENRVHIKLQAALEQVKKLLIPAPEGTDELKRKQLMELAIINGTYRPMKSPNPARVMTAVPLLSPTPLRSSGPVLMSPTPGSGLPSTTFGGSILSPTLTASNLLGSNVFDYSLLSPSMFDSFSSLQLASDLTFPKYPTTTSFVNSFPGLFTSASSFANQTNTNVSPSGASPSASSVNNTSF
# measurementProtocol: small molecules blocking C. elegans GLD-1 RNA recognition – biochemical, fluorescence polarization, primary screen (AID 2280);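 note: 0% = DMSO wells with GLD-1 and probe and 100% = wells lacking GLD-1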
# conditionNotes: purified GLD-1 + fluorescein TGE RNA, at 5.96 µM, stronger effect = higher value
About 1,400 (0.44%) of roughly 320,000 compounds were called active. The sample as a whole holds a higher share of actives than the screen did.

>  <compound>
Nc1cccc2c1C(=O)N(Cc1nnc(-c3ccccc3Br)o1)C2=O

>  <inhibition [%]>
37

$$$$
>  <compound>
Cc1ccccc1SCC(=O)OCC(=O)N1CC(=O)Nc2ccccc21

>  <inhibition [%]>
1.92

$$$$
>  <compound>
Cc1sc2ncnc(SCC(=O)Nc3ccc(CN4CCCC4)cc3)c2c1C

>  <inhibition [%]>
-0.9

$$$$
>  <compound>
Cc1oc2c(c1C(=O)N1CCOCC1)C(=O)c1ccccc1C2=O

>  <inhibition [%]>
-4.37

$$$$
>  <compound>
CN(Cc1ccc(F)cc1)C(=O)CN1C(=O)c2ccccc2S1(=O)=O

>  <inhibition [%]>
-0.45

$$$$
>  <compound>
O=C(CN1CCOC1=O)N1CCCC(Nc2ccc(F)c(F)c2)C1 (stereo not given)

>  <inhibition [%]>
-0.97

$$$$
>  <compound>
COc1ccccc1C(=O)N(C1=NC(C)CS1)c1ccc(Cl)cc1 (stereo not given)

>  <inhibition [%]>
5.47

$$$$
>  <compound>
O=C1c2ccccc2-c2ncnc3c(N4CCOCC4)cc(N4CCOCC4)c1c23

>  <inhibition [%]>
47.9

$$$$
>  <compound>
CCC(=NC1CC(C)(C)NC(C)(C)C1)C1=C(O)CC(C)(C)CC1=O

>  <inhibition [%]>
0.57

$$$$
>  <compound>
CC(C)n1cnc2c(NCc3ccccc3)cc(N[C@@H](CO)Cc3ccccc3)cc21

>  <inhibition [%]>
43.8

$$$$
>  <compound>
CCOC(=O)c1cnc2nc(SCc3ccccc3Cl)[nH]n2c1=O

>  <inhibition [%]>
-4.26

$$$$
>  <compound>
CCOC(=O)c1ccccc1CN1C(=O)c2ccccc2S1(=O)=O

>  <inhibition [%]>
1.98

$$$$
>  <compound>
C[n+]1ccc(/C=C/c2c[nH]c3ccccc23)cc1

>  <inhibition [%]>
55.5

$$$$
>  <compound>
COc1cccc(-c2nc(CS(=O)CC(=O)NCc3ccc(F)cc3)c(C)o2)c1 (stereo not given)

>  <inhibition [%]>
-0.05

$$$$
>  <compound>
O=C(COC(=O)c1cc[n+]([O-])cc1)Nc1ccc(Cl)c(C(F)(F)F)c1

>  <inhibition [%]>
8.04

$$$$
>  <compound>
O=C(NC1CCCC1)C(=O)c1c[nH]c2ccccc12

>  <inhibition [%]>
6.85

$$$$
>  <compound>
COc1ccccc1CNS(=O)(=O)CC12CCC(CC1=O)C2(C)C (stereo not given)

>  <inhibition [%]>
-1.89

$$$$
>  <compound>
COc1ccc2[nH]c(=O)c(CN(Cc3cccnc3)S(=O)(=O)c3ccccc3F)cc2c1

>  <inhibition [%]>
8.84

$$$$
>  <compound>
CC(Sc1nnc(-c2cccs2)n1C1CC1)C(=O)NCC1CCCO1 (stereo not given)

>  <inhibition [%]>
-1.09

$$$$
>  <compound>
CC(C)(C)NC(=O)CN1CCC(NC(=O)C23CC4CC(CC(C4)C2)C3)CC1

>  <inhibition [%]>
-2.46

$$$$
>  <compound>
CCOC(=O)c1cc2n(c1N)-c1ccccc1C2=O

>  <inhibition [%]>
117

$$$$
>  <compound>
CN1C(=O)c2cccc3c(N)ccc(c23)C1=O

>  <inhibition [%]>
198

$$$$
>  <compound>
C[C@@H]1CC[C@@]2(OC1)O[C@H]1C[C@H]3[C@@H]4CC=C5C[C@@H](O)[C@H](O)C[C@]5(C)C4CC[C@]3(C)[C@H]1[C@@H]2C (stereo not given in full)

>  <inhibition [%]>
-7.94

$$$$
>  <compound>
COc1cccc(NC(=O)C(=O)c2cn(CC(=O)N3CCOCC3)c3ccccc23)c1

>  <inhibition [%]>
9.65

$$$$
>  <compound>
CC1CCN(C(=O)Cn2nnnc2CN2CCOCC2)CC1

>  <inhibition [%]>
0.79

$$$$
>  <compound>
COc1ccc(C2C=C(c3ccc(Br)cc3)Nc3nc(NS(C)(=O)=O)nn32)cc1 (stereo not given)

>  <inhibition [%]>
155

$$$$
>  <compound>
COc1ccc(/C=C(\C#N)c2c[nH]c3ccccc23)cc1

>  <inhibition [%]>
8.67

$$$$
>  <compound>
COc1cc(C2C(C(=O)c3ccco3)=C(O)C(=O)N2c2cc(C)on2)ccc1OCc1ccccc1 (stereo not given)

>  <inhibition [%]>
-1.87

$$$$
>  <compound>
COc1ccc2c(CC(=O)N3CCc4cc(OC)c(OC)cc4C3)coc2c1

>  <inhibition [%]>
5.21

$$$$
>  <compound>
Cc1cc(C)c(S(=O)(=O)N2CCCC2CNC(=O)c2ccc3c(c2)OCO3)c(C)c1 (stereo not given)

>  <inhibition [%]>
-0.56

$$$$
>  <compound>
COc1ccc(C(C)=O)cc1COC(=O)Cn1cnc2ccccc2c1=O

>  <inhibition [%]>
-1.6

$$$$
>  <compound>
COC1=C(N2CCOCC2)C(=O)c2ccccc2C1=O

>  <inhibition [%]>
5.26

$$$$
>  <compound>
CCNS(=O)(=O)c1ccc(CCC(=O)N2CCN(c3cc(Cl)ccc3C)CC2)cc1

>  <inhibition [%]>
1.35

$$$$
>  <compound>
COc1ccc(CCNS(=O)(=O)c2cc3c(cc2C)NC(=O)CO3)cc1OC

>  <inhibition [%]>
5.55

$$$$
>  <compound>
CN(C)C=NC(=O)c1cccn1-c1ncc(C(F)(F)F)cc1Cl

>  <inhibition [%]>
3.24

$$$$
>  <compound>
Cn1cnnc1SCc1nnc(-c2ccccc2Br)o1

>  <inhibition [%]>
-10.8

$$$$
>  <compound>
C=CCSc1nnc2c(n1)-c1cccc3cccc-2c13

>  <inhibition [%]>
-2.48

$$$$
>  <compound>
CC(=O)N/C(=N/c1nc(C)cc(C)n1)Nc1ccc(F)cc1F

>  <inhibition [%]>
-1.91

$$$$
>  <compound>
O=C(c1cnccn1)N1CCN(S(=O)(=O)c2cccc(Cl)c2)CC1

>  <inhibition [%]>
3.23

$$$$
>  <compound>
O=C(Nc1ccccc1C(=O)O)c1ccc(N2C(=O)C3CC=CCC3C2=O)cc1 (stereo not given)

>  <inhibition [%]>
3.32

$$$$

---

# targetEntity: Female germline-specific tumor suppressor gld-1 (Caenorhabditis elegans)
# measurementProtocol: small molecules blocking C. elegans GLD-1 RNA recognition – biochemical, fluorescence polarization, primary screen (AID 2280);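 note: 0% = DMSO wells with GLD-1 and probe and 100% = wells lacking GLD-1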
# conditionNotes: purified GLD-1 + fluorescein TGE RNA, at 5.96 µM, stronger effect = higher value
In all, about 320,000 compounds went through this assay and about 1,400 (0.44%) were called active. This is one part of a sample in which actives are shown more often than they occur.

>  <molecule>
CC1(OC(=O)C2CCCC2)C(=O)C=C2C=C(c3ccc(C#N)cc3)OC=C2C1=O (configuration not stated)

>  <targetEntity>
Female germline-specific tumor suppressor gld-1 (Caenorhabditis elegans)

>  <inhibition (%)>
17.8

$$$$
>  <molecule>
Cc1ccccc1Nc1nc(N)nc(CSc2nnc3ccccn23)n1

>  <targetEntity>
Female germline-specific tumor suppressor gld-1 (Caenorhabditis elegans)

>  <inhibition (%)>
35.3

$$$$
>  <molecule>
COc1ccc(OCCCC(=O)Nc2cccc(S(=O)(=O)N3CCCCCC3)c2)cc1

>  <targetEntity>
Female germline-specific tumor suppressor gld-1 (Caenorhabditis elegans)

>  <inhibition (%)>
6.95

$$$$
>  <molecule>
CCCn1c(C2CCCN2c2nc(-c3ccc(OC)cc3)cs2)nc2ccccc21 (configuration not stated)

>  <targetEntity>
Female germline-specific tumor suppressor gld-1 (Caenorhabditis elegans)

>  <inhibition (%)>
9.35

$$$$
>  <molecule>
O=C(COC(=O)c1ccccc1C(=O)N1CCN(c2ccccc2)CC1)NCc1ccccc1

>  <targetEntity>
Female germline-specific tumor suppressor gld-1 (Caenorhabditis elegans)

>  <inhibition (%)>
55.9

$$$$
>  <molecule>
O=C(CN1CCN(Cc2ccc(F)cc2Cl)C1=O)NCc1cccs1

>  <targetEntity>
Female germline-specific tumor suppressor gld-1 (Caenorhabditis elegans)

>  <inhibition (%)>
5.83

$$$$
>  <molecule>
O=C(Cc1ccc(S(=O)(=O)N2CCOCC2)s1)N1CCN(c2ccc(C(F)(F)F)cc2[N+](=O)[O-])CC1

>  <targetEntity>
Female germline-specific tumor suppressor gld-1 (Caenorhabditis elegans)

>  <inhibition (%)>
8.86

$$$$
>  <molecule>
CCOC(=O)c1cccc(NC(=O)CN2C(=O)C3CC=CCC3C2=O)c1 (configuration not stated)

>  <targetEntity>
Female germline-specific tumor suppressor gld-1 (Caenorhabditis elegans)

>  <inhibition (%)>
4.12

$$$$
>  <molecule>
COc1ccc(Nc2nc(-c3cccnc3)nc3ccccc23)cn1

>  <targetEntity>
Female germline-specific tumor suppressor gld-1 (Caenorhabditis elegans)

>  <inhibition (%)>
100

$$$$
>  <molecule>
CCN1CCN(c2ccc(S(=O)(=O)N3CCCCC3)cc2NC(=O)Cc2c(Cl)cccc2Cl)CC1

>  <targetEntity>
Female germline-specific tumor suppressor gld-1 (Caenorhabditis elegans)

>  <inhibition (%)>
-0.26

$$$$
>  <molecule>
O=C(CCc1ccccc1)Nc1ccc(NC(=O)C2CC2)nc1

>  <targetEntity>
Female germline-specific tumor suppressor gld-1 (Caenorhabditis elegans)

>  <inhibition (%)>
8.07

$$$$
>  <molecule>
CCOC(=O)c1nc(Nc2ccc(C(=O)OC)cc2)c2ccccc2n1

>  <targetEntity>
Female germline-specific tumor suppressor gld-1 (Caenorhabditis elegans)

>  <inhibition (%)>
-1.24

$$$$
>  <molecule>
Cc1ccc(C)c(S(=O)(=O)N2CCN(C(=O)Nc3ccccc3)CC2)c1

>  <targetEntity>
Female germline-specific tumor suppressor gld-1 (Caenorhabditis elegans)

>  <inhibition (%)>
34.2

$$$$
>  <molecule>
OC1CN=C2Sc3ccccc3N2C1 (configuration not stated)

>  <targetEntity>
Female germline-specific tumor suppressor gld-1 (Caenorhabditis elegans)

>  <inhibition (%)>
12.5

$$$$
>  <molecule>
O=[N+]([O-])c1ccc(F)cc1Oc1nc(-c2cccnc2)nc2ccccc12

>  <targetEntity>
Female germline-specific tumor suppressor gld-1 (Caenorhabditis elegans)

>  <inhibition (%)>
-1.37

$$$$
>  <molecule>
O=C(c1cc(=O)c2ccccc2o1)N1CCN(c2ccccc2)CC1

>  <targetEntity>
Female germline-specific tumor suppressor gld-1 (Caenorhabditis elegans)

>  <inhibition (%)>
-3.54

$$$$
>  <molecule>
CCOCC(=O)NCc1ccc2c(c1)cc(C)n2C

>  <targetEntity>
Female germline-specific tumor suppressor gld-1 (Caenorhabditis elegans)

>  <inhibition (%)>
25.6

$$$$
>  <molecule>
CC1(C)CC[C@]2(C(=O)O)CC[C@]3(C)C(=CCC4[C@@]5(C)CC[C@H](O)C(C)(C)C5[C@H](O)C[C@]43C)[C@@H]2C1 (some centres not stated)

>  <targetEntity>
Female germline-specific tumor suppressor gld-1 (Caenorhabditis elegans)

>  <inhibition (%)>
1.49

$$$$
>  <molecule>
COc1cc(C(=O)NCc2ccc3c(c2)cc(C)n3C)cc(OC)c1OC

>  <targetEntity>
Female germline-specific tumor suppressor gld-1 (Caenorhabditis elegans)

>  <inhibition (%)>
34.8

$$$$
>  <molecule>
CC(C)N(C(=O)COC(=O)c1ccccc1C(=O)N1CCN(c2ccc(F)cc2)CC1)C(C)C

>  <targetEntity>
Female germline-specific tumor suppressor gld-1 (Caenorhabditis elegans)

>  <inhibition (%)>
6.66

$$$$
>  <molecule>
COc1ccc(OC)c(C(=O)c2ccc(C(=O)N3CCN(Cc4csc(C)n4)CC3)cc2)c1

>  <targetEntity>
Female germline-specific tumor suppressor gld-1 (Caenorhabditis elegans)

>  <inhibition (%)>
-0.78

$$$$
>  <molecule>
COc1cc(C(=O)NCc2cc3cc(Cl)ccc3n2C)cc(OC)c1OC

>  <targetEntity>
Female germline-specific tumor suppressor gld-1 (Caenorhabditis elegans)

>  <inhibition (%)>
-2.07

$$$$
>  <molecule>
CCCn1c(C2CCCN2c2nc(-c3ccc(C)cc3)cs2)nc2cc(Cl)c(N3CCCCC3)cc21 (configuration not stated)

>  <targetEntity>
Female germline-specific tumor suppressor gld-1 (Caenorhabditis elegans)

>  <inhibition (%)>
34.6

$$$$
>  <molecule>
CCOc1ccc2nc(N3CCCN(C(=O)Nc4ccccc4C)CC3)c(C#N)cc2c1

>  <targetEntity>
Female germline-specific tumor suppressor gld-1 (Caenorhabditis elegans)

>  <inhibition (%)>
42

$$$$
>  <molecule>
CCCN(CC(=O)Nc1ccccc1OC)C(=O)CCC(=O)c1ccc(F)cc1

>  <targetEntity>
Female germline-specific tumor suppressor gld-1 (Caenorhabditis elegans)

>  <inhibition (%)>
54.8

$$$$
>  <molecule>
CCCn1c(C(C)Nc2nc(-c3ccc(C)cc3)cs2)nc2cc(Cl)c(N3CCCCC3)cc21 (configuration not stated)

>  <targetEntity>
Female germline-specific tumor suppressor gld-1 (Caenorhabditis elegans)

>  <inhibition (%)>
2.12

$$$$
>  <molecule>
CC(C)N(C)C(=O)CCc1nnc(CCc2c[nH]c3ccccc23)o1

>  <targetEntity>
Female germline-specific tumor suppressor gld-1 (Caenorhabditis elegans)

>  <inhibition (%)>
7.03

$$$$
>  <molecule>
CCOC(=O)c1cc(C#N)c(N2CCCCC2)nc1-c1ccccc1

>  <targetEntity>
Female germline-specific tumor suppressor gld-1 (Caenorhabditis elegans)

>  <inhibition (%)>
-3.77

$$$$
>  <molecule>
COc1ccc(Cl)cc1NC(=O)COC(=O)c1ccc(Br)o1

>  <targetEntity>
Female germline-specific tumor suppressor gld-1 (Caenorhabditis elegans)

>  <inhibition (%)>
-3.63

$$$$
>  <molecule>
O=C(NCc1cccs1)C(=O)NCC1OCCCN1S(=O)(=O)c1ccc(F)cc1 (configuration not stated)

>  <targetEntity>
Female germline-specific tumor suppressor gld-1 (Caenorhabditis elegans)

>  <inhibition (%)>
1.56

$$$$
>  <molecule>
CCC(C)[C@@H](C(=O)N1CCNCC1)n1cc(CCCCN)nn1 (some centres not stated)

>  <targetEntity>
Female germline-specific tumor suppressor gld-1 (Caenorhabditis elegans)

>  <inhibition (%)>
3.86

$$$$
>  <molecule>
CC(NC(=O)CSc1nc2c(cc1C#N)CN(C)CC2)c1ccccc1 (configuration not stated)

>  <targetEntity>
Female germline-specific tumor suppressor gld-1 (Caenorhabditis elegans)

>  <inhibition (%)>
35.9

$$$$
